The reader will find reported Fa values listed item by item below.
Assay: % absorbed in human GI-tract
Format: ADME, organism-based
Settings: in vivo, read-out: % absorbed
Express it in %; write the number only.

Reference set, count: 5
[
  {
    "compound": "CC(CCc1ccccc1)NCC(O)c1ccc(O)c(C(N)=O)c1 (configuration not stated) [LABETALOL]",
    "reading": 90
  },
  {
    "compound": "NS(=O)(=O)c1cc2c(cc1Cl)NCNS2(=O)=O [HYDROCHLOROTHIAZIDE]",
    "reading": 67
  },
  {
    "compound": "CN/C(=N/CCSCc1nc[nH]c1C)NC#N [CIMETIDINE]",
    "reading": 95
  },
  {
    "compound": "N=C(N)NC(=O)c1nc(Cl)c(N)nc1N [AMILORIDE]",
    "reading": 50
  },
  {
    "compound": "CC(C)(C)NCC(O)c1cc(O)cc(O)c1 (configuration not stated) [TERBUTALINE]",
    "reading": 70
  }
]

Task: Dear colleague, I am looking for the recorded Fa of the following compound: CN(C)CCCN1c2ccccc2Sc2ccc(Cl)cc21 [CHLORPROMAZINE]
Result: 100

---

Reported values of Log Pe for individual entries
Test: Highest effective permeability across hexadecane membrane (pH 4-8)
Type: ADME
# value in cm s-1; strip the unit string

# annotated cases, reported Log Pe shown
[
  {
    "molecule": "N=C(N)N/N=C/c1c(Cl)cccc1Cl [GUANABENZ]",
    "resultUnit": "cm s-1",
    "reading": -4.4
  },
  {
    "molecule": "O=C(O)c1cc(/N=N/c2ccc(S(=O)(=O)Nc3ccccn3)cc2)ccc1O [SULFASALAZINE]",
    "resultUnit": "cm s-1",
    "reading": -4.9
  },
  {
    "molecule": "Cc1ccccc1N1C(=O)c2cc(S(N)(=O)=O)c(Cl)cc2NC1C (stereo not given) [METOLAZONE]",
    "resultUnit": "cm s-1",
    "reading": -4.6
  },
  {
    "molecule": "C=CCc1ccccc1OCC(O)CNC(C)C (stereo not given) [ALPRENOLOL]",
    "resultUnit": "cm s-1",
    "reading": -4
  }
]

Task: # query: Log Pe of entry O=C(O)CN(CCN(CC(=O)O)Cc1ccccc1O)Cc1ccccc1O
Result: -5.1

---

Assay: Highest effective permeability across hexadecane membrane (pH 4-8)
Assay type: ADME
Each entry below carries its reported Log Pe.
Give just the numeric value; cm s-1 need not be written.

[
  {
    "molecule": "CC(C)NCC(O)COc1cccc2ccccc12 (stereo unspecified) [PROPRANOLOL]",
    "reading": -4
  }
]

Task: Which Log Pe reading was recorded for the molecule CC(=O)[C@H]1CC[C@H]2[C@@H]3CCC4=CC(=O)CC[C@]4(C)[C@H]3CC[C@]12C [PROGESTERONE] ?
Result: -3.8

Task: Which Log Pe is reported for this molecule? CC(=O)N(O)CCCCCNC(=O)CCC(=O)N(O)CCCCCNC(=O)CCC(=O)N(O)CCCCCN [DEFEROXAMINE]
Result: -5.3

Task: Returns the measured Log Pe for the input molecule. Input: O=C1NC(=O)C(c2ccccc2)(c2ccccc2)N1 [PHENYTOIN]
Result: -4

Task: Please give the measured Log Pe for this molecule: N=C(N)NC(=O)c1nc(Cl)c(N)nc1N [AMILORIDE]
Result: -4.4

Task: # query: Log Pe of entry CCN1CCCC1CNC(=O)c1cc(S(N)(=O)=O)ccc1OC (stereo unspecified) [SULPIRIDE]
Result: -4.6
